Data credit: patent US20210388087A1

# ASSAY SYSTEM: T1, Human CD3eg linker (human)
# T1 construct: Single chain: epsilon and gamma subunits of human CD3 joined by a 29-mer linker, Flag-tag at the C-terminus; also called recombinant human CD3
# T1 chain: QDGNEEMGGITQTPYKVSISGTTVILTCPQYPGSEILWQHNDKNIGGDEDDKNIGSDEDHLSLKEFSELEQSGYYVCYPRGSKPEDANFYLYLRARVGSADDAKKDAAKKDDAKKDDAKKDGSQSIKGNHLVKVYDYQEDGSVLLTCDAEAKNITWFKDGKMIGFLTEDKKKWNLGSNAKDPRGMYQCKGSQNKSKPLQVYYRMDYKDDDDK
# TEST METHOD NOTES: Biacore SPR, vs template H183/L072
REPORTED METRIC: fold change of affinity (fold)
Field format: number, assumed fold, no unit text.

# count of solved cases: 5
{"BINDER": "H183/L072 VH Q50R (antibody, name in Kabat numbering, V domains shown) VH: QVQLVESGGGLVQPGRSLRLSCAASGFTFSNAWMHWVRQAPGKGLEWVARIKDKGNAYAAYYAPSVKGRFTISRDDSKNSIYLQMNSLKTEDTAVYYCHYVHYASASTVLPAFGVDAWGQGTTVTVSS VL: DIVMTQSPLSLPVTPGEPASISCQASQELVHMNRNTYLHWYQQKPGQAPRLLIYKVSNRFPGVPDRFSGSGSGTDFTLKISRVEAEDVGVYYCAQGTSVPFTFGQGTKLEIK", "fold change of affinity / fold": 0}
{"BINDER": "H183/L072 VH G65I (antibody, name in Kabat numbering, V domains shown) VH: QVQLVESGGGLVQPGRSLRLSCAASGFTFSNAWMHWVRQAPGKGLEWVAQIKDKGNAYAAYYAPSVKIRFTISRDDSKNSIYLQMNSLKTEDTAVYYCHYVHYASASTVLPAFGVDAWGQGTTVTVSS VL: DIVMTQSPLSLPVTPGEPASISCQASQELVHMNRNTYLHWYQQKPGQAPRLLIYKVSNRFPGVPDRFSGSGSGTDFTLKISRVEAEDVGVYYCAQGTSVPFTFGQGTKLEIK", "fold change of affinity / fold": 1}
{"BINDER": "H183/L072 VH Y59N (antibody, name in Kabat numbering, V domains shown) VH: QVQLVESGGGLVQPGRSLRLSCAASGFTFSNAWMHWVRQAPGKGLEWVAQIKDKGNAYAAYNAPSVKGRFTISRDDSKNSIYLQMNSLKTEDTAVYYCHYVHYASASTVLPAFGVDAWGQGTTVTVSS VL: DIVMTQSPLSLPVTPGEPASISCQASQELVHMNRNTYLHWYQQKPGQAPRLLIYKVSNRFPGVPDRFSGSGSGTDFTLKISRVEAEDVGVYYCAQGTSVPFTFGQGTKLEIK", "fold change of affinity / fold": 1.2}
{"BINDER": "H183/L072 VH A98L (antibody, name in Kabat numbering, V domains shown) VH: QVQLVESGGGLVQPGRSLRLSCAASGFTFSNAWMHWVRQAPGKGLEWVAQIKDKGNAYAAYYAPSVKGRFTISRDDSKNSIYLQMNSLKTEDTAVYYCHYVHYLSASTVLPAFGVDAWGQGTTVTVSS VL: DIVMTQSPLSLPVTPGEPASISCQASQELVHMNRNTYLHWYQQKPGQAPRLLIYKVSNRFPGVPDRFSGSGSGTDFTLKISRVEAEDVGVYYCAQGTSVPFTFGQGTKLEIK", "fold change of affinity / fold": 3.7}
{"BINDER": "H183/L072 VH F29P (antibody, name in Kabat numbering, V domains shown) VH: QVQLVESGGGLVQPGRSLRLSCAASGFTPSNAWMHWVRQAPGKGLEWVAQIKDKGNAYAAYYAPSVKGRFTISRDDSKNSIYLQMNSLKTEDTAVYYCHYVHYASASTVLPAFGVDAWGQGTTVTVSS VL: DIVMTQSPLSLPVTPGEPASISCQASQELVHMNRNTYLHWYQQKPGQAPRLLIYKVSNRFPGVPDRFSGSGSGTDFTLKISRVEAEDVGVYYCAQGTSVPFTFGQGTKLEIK", "fold change of affinity / fold": 0.2}

Prompt: # input binder: H183/L072 VH V63M (antibody, name in Kabat numbering, V domains shown) VH: QVQLVESGGGLVQPGRSLRLSCAASGFTFSNAWMHWVRQAPGKGLEWVAQIKDKGNAYAAYYAPSMKGRFTISRDDSKNSIYLQMNSLKTEDTAVYYCHYVHYASASTVLPAFGVDAWGQGTTVTVSS VL: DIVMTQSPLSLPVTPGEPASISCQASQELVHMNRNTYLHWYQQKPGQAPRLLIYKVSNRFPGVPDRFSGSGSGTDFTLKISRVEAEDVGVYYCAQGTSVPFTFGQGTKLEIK ; wanted: its fold change of affinity
Response: 1.4

Prompt: # input binder: H183/L072 VH I51Q (antibody, name in Kabat numbering, V domains shown) VH: QVQLVESGGGLVQPGRSLRLSCAASGFTFSNAWMHWVRQAPGKGLEWVAQQKDKGNAYAAYYAPSVKGRFTISRDDSKNSIYLQMNSLKTEDTAVYYCHYVHYASASTVLPAFGVDAWGQGTTVTVSS VL: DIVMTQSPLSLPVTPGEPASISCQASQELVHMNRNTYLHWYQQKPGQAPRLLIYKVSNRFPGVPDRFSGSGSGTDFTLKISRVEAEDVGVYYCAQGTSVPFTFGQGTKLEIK ; wanted: its fold change of affinity
Response: 0
